system: bean aphids (BA); experiment: Spray test, bean aphids (BA) on nasturtiums; assay type: in vivo; conditions: 62 ppm; approx. 48 h after spraying
test_readout: BA rating (dead)

Quick one: BA rating (dead) of `C=CCSc1nc(C2CC2)nn1C(=O)N(C)C` ?
5 (100% dead)

How about this compound: `CN(C)C(=O)n1nc(C(C)(C)C)nc1SCC(Cl)=C(Cl)Cl`
5 (100% dead)

Try this compound too: `C=C(Br)CSc1nc(C2CC2)nn1C(=O)N(C)C`
5 (100% dead)

Try this compound next: `C=C(Br)CSc1nc(C(C)(C)C)nn1C(=O)N(C)C`
5 (100% dead)

---

test system: Mexican bean beetle (MBB) larvae; test: Spray test, Mexican bean beetle (MBB) larvae on bean leaves; type: in vivo; details: 500 ppm; approx. 48 h after spraying
test_readout: MBB rating (larvae dead)

Use the examples below as a reference point.
INSERT INTO assay_data (molecule, result) VALUES
  ('C=CC(C)Sc1nc(C(C)(C)C)nn1C(=O)N(C)C (stereo not drawn)', '5 (100% larvae dead)'),
  ('C#CCSc1nc(CCC)nn1C(=O)N(C)C', '5 (100% larvae dead)'),
  ('C#CCSc1nc(C(C)C)nn1C(=O)N(C)C', '5 (100% larvae dead)'),
  ('C=CCSc1nc(C(C)C)nn1C(=O)N(C)C', '5 (100% larvae dead)'),
  ('C=C(Cl)CSc1nc(C(C)(C)C)nn1C(=O)N(C)C', '2 (26-50% larvae dead)');

Given the molecule `C=C(Br)CSc1nc(C(C)(C)C)nn1C(=O)N(C)C` , what is its reported MBB rating (larvae dead)?
2 (26-50% larvae dead)

`CN(C)C(=O)n1nc(C(C)(C)C)nc1SCC(Cl)=C(Cl)Cl` , same question.
0 (no larvae dead)

Another molecule: `C=C(C)CSc1nc(C(C)(C)C)nn1C(=O)N(C)C`
2 (26-50% larvae dead)

Could you do the same for `C=C(Br)CSc1nc(C2CC2)nn1C(=O)N(C)C` , please?
2 (26-50% larvae dead)

---

system: southern armyworm (SA) larvae; experiment: Spray test, southern armyworm (SA) larvae on bean leaves; type: in vivo; conditions: 125 ppm; approx. 48 h after spraying
Measured SA rating (larvae dead) values are reported for all entries that follow.

The examples below pair each entry with its known result.
INSERT INTO measurements (given_smiles, subject_of_test, test_readout, result) VALUES
  ('C#CCSc1nc(CCC)nn1C(=O)N(C)C', 'southern armyworm (SA) larvae', 'SA rating (larvae dead)', '0 (no larvae dead)'),
  ('C#CCSc1nc(C2CC2)nn1C(=O)N(C)C', 'southern armyworm (SA) larvae', 'SA rating (larvae dead)', '2 (26-50% larvae dead)');

Now consider the entry below.
What value of SA rating (larvae dead) has been recorded for this entry: `C=CCSc1nc(C(C)C)nn1C(=O)N(C)C`
0 (no larvae dead)

---

// reported BA rating (dead) per item
test system: bean aphids (BA); test: Spray test, bean aphids (BA) on nasturtiums; type: in vivo; settings: 62 ppm; approx. 48 h after spraying

Some solved cases for reference:
INSERT INTO results (compound, subject_of_test, result) VALUES
  ('C#CCSc1nc(C(C)(C)C)nn1C(=O)N(C)C [R=2-propynyl, R''=tert.butyl]', 'bean aphids (BA)', '5 (100% dead)'),
  ('C#CCSc1nc(CCC)nn1C(=O)N(C)C [R=2-propynyl, R''=propyl]', 'bean aphids (BA)', '5 (100% dead)'),
  ('C=CCSc1nc(C(C)C)nn1C(=O)N(C)C [R=2-propenyl (allyl), R''=isopropyl]', 'bean aphids (BA)', '5 (100% dead)'),
  ('C=CC(C)Sc1nc(C(C)(C)C)nn1C(=O)N(C)C (centres unmarked) [R=1-methylallyl, R''=tert.butyl]', 'bean aphids (BA)', '5 (100% dead)'),
  ('C=C(Cl)CSc1nc(C(C)(C)C)nn1C(=O)N(C)C [R=2-chloroallyl, R''=tert.butyl]', 'bean aphids (BA)', '5 (100% dead)');

Report BA rating (dead) for C=CCSc1nc(C(C)(C)C)nn1C(=O)N(C)C [R=2-propenyl (allyl), R'=tert.butyl] tested on bean aphids (BA).
5 (100% dead)

C=C(C)CSc1nc(C(C)(C)C)nn1C(=O)N(C)C [R=2-methylallyl, R'=tert.butyl] ?
5 (100% dead)

Next compound: C#CCSc1nc(C2CC2)nn1C(=O)N(C)C [R=2-propynyl (propargyl), R'=cyclopropyl]
5 (100% dead)

---

assay: Oral toxicity test on laboratory rats; conditions: rat, in vivo, in corn oil as additive to the diet, read-out: LD50 (oral lethal dose for 50 percent kill of laboratory rats)
test_readout: LD50

Check out these entries, answers already filled in.
INSERT INTO measurements (given_smiles, result) VALUES
  ('C#CCSc1nc(C(C)(C)C)nn1C(=O)N(C)C', '> 50 mg/kg'),
  ('C=CCSc1nc(C(C)C)nn1C(=O)N(C)C', '10 to 50 mg/kg'),
  ('C#CCSc1nc(C(C)C)nn1C(=O)N(C)C', '~50 mg/kg'),
  ('C#CCSc1nc(C2CC2)nn1C(=O)N(C)C', '10 mg/kg'),
  ('C=CCSc1nc(C2CC2)nn1C(=O)N(C)C', '5 to 10 mg/kg');

Query: LD50; subject: `C=CCSc1nc(C(C)(C)C)nn1C(=O)N(C)C`
17 mg/kg

---

test system: Mexican bean beetle (MBB) larvae; assay: Spray test, Mexican bean beetle (MBB) larvae on bean leaves; format: in vivo; conditions: 250 ppm; approx. 48 h after spraying
Listed below: MBB rating (larvae dead) values for each entry.

Example cases with answers are listed next.
INSERT INTO results (compound, result) VALUES
  ('C#CCSc1nc(C2CC2)nn1C(=O)N(C)C', '5 (100% larvae dead)'),
  ('C=CC(C)Sc1nc(C(C)(C)C)nn1C(=O)N(C)C (stereo not shown)', '1 (1 -25% larvae dead)'),
  ('C=CCSc1nc(C2CC2)nn1C(=O)N(C)C', '5 (100% larvae dead)');

For the next question, use this compound.
# MBB rating (larvae dead) lookup, item `C#CCSc1nc(C(C)(C)C)nn1C(=O)N(C)C`
5 (100% larvae dead)

---

Documented BA rating (dead) across a set of compounds
system: bean aphids (BA); assay: Spray test, bean aphids (BA) on nasturtiums; assay type: in vivo; details: 4 ppm; approx. 48 h after spraying

INSERT INTO assay_data (compound, test_readout, result) VALUES
  ('C#CCSc1nc(C(C)(C)C)nn1C(=O)N(C)C [R=2-propynyl, R''=tert.butyl]', 'BA rating (dead)', '5 (100% dead)'),
  ('C=CCSc1nc(C(C)(C)C)nn1C(=O)N(C)C [R=2-propenyl (allyl), R''=tert.butyl]', 'BA rating (dead)', '3 (51-75% dead)');

Item `C=C(Br)CSc1nc(C2CC2)nn1C(=O)N(C)C` has what recorded BA rating (dead)?
0 (none dead)

And the next one, `C=C(Br)CSc1nc(C(C)(C)C)nn1C(=O)N(C)C` ?
4 (76-99% dead)

Same for C=CCSc1nc(C2CC2)nn1C(=O)N(C)C [R=2-propenyl (allyl), R'=cyclopropyl]
5 (100% dead)

Query C=CCSc1nc(C(C)C)nn1C(=O)N(C)C [R=2-propenyl (allyl), R'=isopropyl] next
2 (26-50% dead)

// query: C#CCSc1nc(C(C)C)nn1C(=O)N(C)C [R=2-propynyl, R'=isopropyl]
3 (51-75% dead)

Please answer likewise for CN(C)C(=O)n1nc(C(C)(C)C)nc1SCC(Cl)=C(Cl)Cl [R=2,3,3-trichloro-allyl, R'=tert.butyl]
3 (51-75% dead)

Now try C=C(Cl)CSc1nc(C(C)(C)C)nn1C(=O)N(C)C [R=2-chloroallyl, R'=tert.butyl] .
4 (76-99% dead)

---

In this section we review reported MBB rating (larvae dead) values for a set of molecules.
test system: Mexican bean beetle (MBB) larvae; experiment: Spray test, Mexican bean beetle (MBB) larvae on bean leaves; format: in vivo; details: 500 ppm; approx. 48 h after spraying

INSERT INTO assay_data (given_smiles, subject_of_test, result) VALUES
  ('C#CCSc1nc(C2CC2)nn1C(=O)N(C)C', 'Mexican bean beetle (MBB) larvae', '5 (100% larvae dead)'),
  ('C#CCSc1nc(C(C)(C)C)nn1C(=O)N(C)C', 'Mexican bean beetle (MBB) larvae', '5 (100% larvae dead)');

Write down the reported MBB rating (larvae dead) of `C=CCSc1nc(C(C)(C)C)nn1C(=O)N(C)C` , test system: Mexican bean beetle (MBB) larvae.
5 (100% larvae dead)

// query: `C=CCSc1nc(C2CC2)nn1C(=O)N(C)C`
5 (100% larvae dead)
